experimentalTarget: Lactoylglutathione lyase (Homo sapiens, UniProt Q04760)
Sequence (Q04760 whole entry): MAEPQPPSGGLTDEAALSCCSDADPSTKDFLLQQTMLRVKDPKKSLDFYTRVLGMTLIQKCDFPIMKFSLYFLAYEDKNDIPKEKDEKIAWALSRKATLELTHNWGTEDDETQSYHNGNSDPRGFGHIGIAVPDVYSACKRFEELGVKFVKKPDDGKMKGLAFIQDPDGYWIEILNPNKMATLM
assayInfo: Inhibition of human recombinant glyoxalase 1 assessed as S-D-lactoylglutathione after 15 mins by spectrophotometric analysis
experimentalReadout: pIC50
Give bare numbers, as −log10 of the molar value.

Oc1cc(O)c2cc(O)c(-c3ccc(O)c(O)c3)[o+]c2c1 [CYANIDIN CHLORIDE] :: 4.93

For every item below, please supply its pIC50.
1. Oc1cc(O)c2cc(O)c(-c3cc(O)c(O)c(O)c3)[o+]c2c1 [DELPHINIDIN CHLORIDE]
2. Oc1ccc(-c2[o+]c3cc(O)cc(O)c3cc2O)cc1 [PELARGONIDIN CHLORIDE]

1: 5.72; 2: 4.79
